# test_method_notes: Amount of fragrance ingredients retained on paper blotter after evaporation (ethanol extraction, GC-MS)
# Type: physicochemical
# experimental_parameters: Table 5; fragrance TAK in C3; 1440 min; 32°C
measured_parameter: amount of fragrance ingredient retained on blotter (percentage of the initial amount) (%)
Give the value in % but do not write % after it.

Answered cases to consult:
Given item C=CC(C)(CCC=C(C)C)OC(C)=O (stereo not drawn) [Linalyl acetate] , the value recorded as its amount of fragrance ingredient retained on blotter (percentage of the initial amount) is 3

Given item O=C1CCCCCCCCCCCC(=O)OCCO1 [Ethylene Brassylate] , the value recorded as its amount of fragrance ingredient retained on blotter (percentage of the initial amount) is 96

--- query ---
Given item CCCCCCOC(C)=O [Hexyl acetate, Hexyl Acetate] , the value recorded as its amount of fragrance ingredient retained on blotter (percentage of the initial amount) is 2

---

# test_method_notes: Amount of fragrance ingredients retained on paper blotter after evaporation (ethanol extraction, GC-MS)
# Format: physicochemical
# experimental_parameters: Table 9; fragrance COM1 in C6; T0 +1440 min
Label condition met when amount of fragrance ingredient retained on blotter (percentage of the initial amount) is at or above 3%; otherwise label condition not met.

input: Threshold query (amount of fragrance ingredient retained on blotter (percentage of the initial amount) >= 3%) on CC1(C)CCC[C@]2(C)[C@H]3CCO[C@]3(C)CC[C@@H]12
output: condition met

Read the next record carefully.
input: Threshold query (amount of fragrance ingredient retained on blotter (percentage of the initial amount) >= 3%) on CC/C=C(\C)C(O)CCCCC (centres unmarked) [Undecavertol™, (E)-4-methyldec-3-en-5-ol]
output: condition met

---

# test_method_notes: Amount of fragrance ingredients retained on paper blotter after evaporation (ethanol extraction, GC-MS)
# Type: physicochemical
# experimental_parameters: Table 4; fragrance TAK in EdT1; 480 min; 32°C
# Protocol: A fragrance (hereafter fragrance TAK, the formulation of which is shown in table 1) was formulated in a typical Eau de Toilette (EdT1) or in fragrance compositions according to the invention (compositions C1 to C4), as shown in table 2. The amount of individual fragrance ingredients retained on paper substrate (blotter) after set time periods was assessed by the following method. […]
In this section, each of the compounds is paired with its reported amount of fragrance ingredient retained on blotter (percentage of the initial amount).

Answered cases to consult:
Given item O=C1CCCCCCCCCCCC(=O)OCCO1 [Ethylene Brassylate] , the value recorded as its amount of fragrance ingredient retained on blotter (percentage of the initial amount) is 73%

Given item C=C(C)[C@H]1CC=C(C)CC1 [Limonene] , the value recorded as its amount of fragrance ingredient retained on blotter (percentage of the initial amount) is <1%

Given item CC(C=O)Cc1ccc(C(C)(C)C)cc1 (centres unmarked) [Lilial™, 3-(4-tert-Butylphenyl)-2-methylpropanal] , the value recorded as its amount of fragrance ingredient retained on blotter (percentage of the initial amount) is 18%

Given item CC/C=C\CCOC(=O)c1ccccc1O [Cis 3-hexenyl salicylate, Cis-3-hexenyl salicylate] , the value recorded as its amount of fragrance ingredient retained on blotter (percentage of the initial amount) is 32%

Given item C=CC(C)(O)CCC=C(C)C (centres unmarked) [Linalool] , the value recorded as its amount of fragrance ingredient retained on blotter (percentage of the initial amount) is 3%

Given item CC(=O)OC1CCCCC1C(C)(C)C (centres unmarked) [Verdox™, (2-tert-butylcyclohexyl) acetate] , the value recorded as its amount of fragrance ingredient retained on blotter (percentage of the initial amount) is <1%

Given item CCCCCCOC(C)=O [Hexyl acetate, Hexyl Acetate] , the value recorded as its amount of fragrance ingredient retained on blotter (percentage of the initial amount) is 6%

--- query ---
Given item C=CC(C)(CCC=C(C)C)OC(C)=O (centres unmarked) [Linalyl acetate] , the value recorded as its amount of fragrance ingredient retained on blotter (percentage of the initial amount) is 2%

---

# test_method_notes: Amount of fragrance ingredients retained on paper blotter after evaporation (ethanol extraction, GC-MS)
# Format: physicochemical
# experimental_parameters: Table 5; fragrance TAK in C3; 120 min; 32°C
In this section, each of the compounds is paired with its reported amount of fragrance ingredient retained on blotter (percentage of the initial amount).
Give the value in % but do not write % after it.

Given item C=CC(C)(O)CCC=C(C)C (centres unmarked) , the value recorded as its amount of fragrance ingredient retained on blotter (percentage of the initial amount) is 37

Given item CC/C=C\CCOC(=O)c1ccccc1O [Cis 3-hexenyl salicylate, Cis-3-hexenyl salicylate] , the value recorded as its amount of fragrance ingredient retained on blotter (percentage of the initial amount) is 83

Given item C=CC(C)(CCC=C(C)C)OC(C)=O (centres unmarked) [Linalyl acetate] , the value recorded as its amount of fragrance ingredient retained on blotter (percentage of the initial amount) is 41

Given item CC(=O)OC1CCCCC1C(C)(C)C (centres unmarked) [Verdox™, (2-tert-butylcyclohexyl) acetate] , the value recorded as its amount of fragrance ingredient retained on blotter (percentage of the initial amount) is 44

---

# test_method_notes: Amount of fragrance ingredients retained on paper blotter after evaporation (ethanol extraction, GC-MS)
# Format: physicochemical
# experimental_parameters: Table 5; fragrance TAK in EdT1; 480 min; 32°C
In this section, each of the compounds is paired with its reported amount of fragrance ingredient retained on blotter (percentage of the initial amount).

Answered cases to consult:
Given item O=C1CCCCCCCCCCCC(=O)OCCO1 [Ethylene Brassylate] , the value recorded as its amount of fragrance ingredient retained on blotter (percentage of the initial amount) is 100%

Given item C=CC(C)(O)CCC=C(C)C (centres unmarked) [Linalool] , the value recorded as its amount of fragrance ingredient retained on blotter (percentage of the initial amount) is <1%

Given item C=CC(C)(CCC=C(C)C)OC(C)=O (centres unmarked) [Linalyl acetate] , the value recorded as its amount of fragrance ingredient retained on blotter (percentage of the initial amount) is <1%

Further cases:
Given item C=C(C)[C@H]1CC=C(C)CC1 [Limonene] , the value recorded as its amount of fragrance ingredient retained on blotter (percentage of the initial amount) is <1%

Given item CCCCCCOC(C)=O [Hexyl acetate, Hexyl Acetate] , the value recorded as its amount of fragrance ingredient retained on blotter (percentage of the initial amount) is <1%

Given item CC(C=O)Cc1ccc(C(C)(C)C)cc1 (centres unmarked) [Lilial™, 3-(4-tert-Butylphenyl)-2-methylpropanal] , the value recorded as its amount of fragrance ingredient retained on blotter (percentage of the initial amount) is 23%

Given item CC/C=C\CCOC(=O)c1ccccc1O [Cis 3-hexenyl salicylate, Cis-3-hexenyl salicylate] , the value recorded as its amount of fragrance ingredient retained on blotter (percentage of the initial amount) is 32%

Given item CC(=O)OC1CCCCC1C(C)(C)C (centres unmarked) [Verdox™, (2-tert-butylcyclohexyl) acetate] , the value recorded as its amount of fragrance ingredient retained on blotter (percentage of the initial amount) is 1%

---

# test_method_notes: Amount of fragrance ingredients retained on paper blotter after evaporation (ethanol extraction, GC-MS)
# Assay type: physicochemical
# experimental_parameters: Table 5; fragrance TAK in EdT1; 1440 min; 32°C
measured_parameter: amount of fragrance ingredient retained on blotter (percentage of the initial amount)

Answered cases to consult:
Given item CCCCCCOC(C)=O [Hexyl acetate, Hexyl Acetate] , the value recorded as its amount of fragrance ingredient retained on blotter (percentage of the initial amount) is <1%

Given item C=C(C)[C@H]1CC=C(C)CC1 , the value recorded as its amount of fragrance ingredient retained on blotter (percentage of the initial amount) is <1%

Given item C=CC(C)(O)CCC=C(C)C (centres unmarked) , the value recorded as its amount of fragrance ingredient retained on blotter (percentage of the initial amount) is <1%

Given item C=CC(C)(CCC=C(C)C)OC(C)=O (centres unmarked) [Linalyl acetate] , the value recorded as its amount of fragrance ingredient retained on blotter (percentage of the initial amount) is <1%

Given item O=C1CCCCCCCCCCCC(=O)OCCO1 [Ethylene Brassylate] , the value recorded as its amount of fragrance ingredient retained on blotter (percentage of the initial amount) is 85%

Further cases:
Given item CC(C=O)Cc1ccc(C(C)(C)C)cc1 (centres unmarked) , the value recorded as its amount of fragrance ingredient retained on blotter (percentage of the initial amount) is 6%

Given item CC(=O)OC1CCCCC1C(C)(C)C (centres unmarked) [Verdox™, (2-tert-butylcyclohexyl) acetate] , the value recorded as its amount of fragrance ingredient retained on blotter (percentage of the initial amount) is <1%

Given item CC/C=C\CCOC(=O)c1ccccc1O [Cis 3-hexenyl salicylate, Cis-3-hexenyl salicylate] , the value recorded as its amount of fragrance ingredient retained on blotter (percentage of the initial amount) is 14%

---

# test_method_notes: Amount of fragrance ingredients retained on paper blotter after evaporation (ethanol extraction, GC-MS)
# Format: physicochemical
# experimental_parameters: Table 9; fragrance COM1 in EdT2; T0 +1440 min
Label condition met when amount of fragrance ingredient retained on blotter (percentage of the initial amount) is at or above 5%; otherwise label condition not met.

input: Threshold query (amount of fragrance ingredient retained on blotter (percentage of the initial amount) >= 5%) on C=C(C)[C@H]1CC=C(C)CC1
output: condition not met

input: Threshold query (amount of fragrance ingredient retained on blotter (percentage of the initial amount) >= 5%) on CC(=O)OC1CCCCC1C(C)(C)C (centres unmarked) [Verdox™, (2-tert-butylcyclohexyl) acetate]
output: condition not met

input: Threshold query (amount of fragrance ingredient retained on blotter (percentage of the initial amount) >= 5%) on CC(C=O)Cc1ccc(C(C)C)cc1 (centres unmarked)
output: condition met

input: Threshold query (amount of fragrance ingredient retained on blotter (percentage of the initial amount) >= 5%) on CC=CC(=O)C1=C(C)CCCC1(C)C
output: condition not met

input: Threshold query (amount of fragrance ingredient retained on blotter (percentage of the initial amount) >= 5%) on CC1(C)CCC[C@]2(C)[C@H]3CCO[C@]3(C)CC[C@@H]12
output: condition met

input: Threshold query (amount of fragrance ingredient retained on blotter (percentage of the initial amount) >= 5%) on C=CC(C)(O)CCC=C(C)CC (mixture of isomers)
output: condition met

Read the next record carefully.
input: Threshold query (amount of fragrance ingredient retained on blotter (percentage of the initial amount) >= 5%) on CC(C)(C)c1ccc(CCC=O)cc1
output: condition met
